# Test system: Vero E6
# protocol: cell viability relative to DMSO; higher = less toxic
# conditionDetails: 72 h; 1 nM
endpointLabel: cell viability
Hi, when you answer, please include the unit after the number. Thanks!

Incoming: Consider the molecule c1cc2c(cc1C1CCCCC1)c1c3n2CCNC3CCC1 (stereo not drawn) [tetrindole] and give its recorded cell viability.
Outgoing: 97.9%

Incoming: Name the recorded cell viability of the molecule listed here: CC1=C(/C=C/C(C)=C/C=C/C(C)=C/C=C/C=C(C)/C=C/C=C(C)/C=C/C2=C(C)CCCC2(C)C)C(C)(C)CCC1 [beta-carotene]
Outgoing: 93.8%

Incoming: Tell me cell viability reported for NC(=O)C1=CN([C@@H]2O[C@H](COP(=O)(O)OP(=O)(O)OC[C@H]3O[C@@H](n4cnc5c(N)ncnc54)[C@H](O)[C@@H]3O)[C@@H](O)[C@H]2O)C=CC1 [coenzyme-I]
Outgoing: 93%

Incoming: Please list cell viability recorded for the molecule C[C@@H](N)Cc1c[nH]c2ccc(O)cc12 [alpha-methylserotonin]
Outgoing: 91.1%

Incoming: Give the measured cell viability for c1ccc2nc(C3=NCCN3)ccc2c1 [BU-224]
Outgoing: 98.7%

Incoming: Specify measured cell viability for CC(C)CNc1nc(-c2cccc3ncccc23)cn2c(-c3ccc(C(=O)NC4CC4)cc3)cnc12 [Mps-BAY-2a] .
Outgoing: 95.7%

Incoming: Please look at this molecule and report its cell viability: CN(C)c1cc(CNCC(C)(C)C)c(O)c2c1C[C@H]1C[C@H]3[C@H](N(C)C)C(O)=C(C(N)=O)C(=O)[C@@]3(O)C(O)=C1C2=O [omadacycline]
Outgoing: 96.3%

Incoming: Retrieve cell viability measured for O=C1C(c2ccccn2)=[N+]([O-])c2ccccc21 [PIT] and print it.
Outgoing: 102%

###

Would you mind telling me the reported cell viability of each entry?
# Tested on: Vero E6
# protocol: cell viability relative to DMSO; higher = less toxic
# conditionDetails: 72 h; 10000 nM

Incoming: For the compound O=C(c1c2ccccc2cc2ccccc12)N1CCC(N2CCC[C@@H](C(=O)N3CCOCC3)C2)CC1 , give its measured cell viability value.
Outgoing: 99.8%

Incoming: Output measured cell viability for this item: CN1CCN(c2ccc(OC(F)(F)F)c(Nc3ncc4c(n3)-c3c(c(C(N)=O)nn3CCO)CC4)c2)CC1
Outgoing: 48.3%

Incoming: Answer with the recorded cell viability of CCn1c(=O)n([C@H]2CCCN(c3nccc(-c4cc5ccccc5o4)n3)C2)c2ccccc21 [TC-F-2] only.
Outgoing: 102%

Incoming: Tell us which cell viability value is on record for COc1cc(C(=O)OCCCN2CCCN(CCCOC(=O)c3cc(OC)c(OC)c(OC)c3)CC2)cc(OC)c1OC [dilazep]
Outgoing: 79.1%

Incoming: State, in one line, measured cell viability of O=C(O)[C@H](Cc1ccccc1)NCc1ccc(Cl)cc1
Outgoing: 101%

Incoming: Look up cell viability of N#C/C(=C\c1cn(-c2ccccc2)c2ccccc12)C(=O)O [UK-5099] and report it.
Outgoing: 101%

Incoming: Report measured cell viability; entry is CCCCCCCC/C=C\CCCCCCCC(N)=O [oleamide]
Outgoing: 101%

Incoming: Return value of cell viability for input CCOC(=O)N[C@@H]1CC[C@@H]2[C@@H](C1)C[C@H]1C(=O)O[C@H](C)[C@H]1[C@H]2/C=C/c1ccc(-c2cccc(F)c2)cn1 [vorapaxar] , no commentary.
Outgoing: 105%

###

What cell viability was measured for each of the following?
# Tested on: Vero E6
# protocol: cell viability relative to DMSO; higher = less toxic
# conditionDetails: 72 h; 1 nM
State the answer as a number, implicitly in %.

Incoming: Determine its reported cell viability: Cc1ccc(Cl)c(Nc2ccccc2C(=O)O)c1Cl
Outgoing: 105

Incoming: Find the measured cell viability of CCC(C)SSc1ncc[nH]1 (stereo unspecified) and report it.
Outgoing: 96.7

Incoming: # return recorded cell viability for input Nc1cccc(-c2cc3c(Oc4cccc(O)c4)ncnc3[nH]2)c1
Outgoing: 110

Incoming: Please give the documented cell viability of CC(=O)Oc1cc(C(F)(F)F)ccc1C(=O)O
Outgoing: 99.4

Incoming: Indicate the recorded cell viability value for this compound: NC(=S)N/N=C/c1ncccc1N
Outgoing: 97

Incoming: Return value of cell viability for input CC(N)CCCC(C)(C)O (stereo unspecified) , no commentary.
Outgoing: 95.1

Incoming: Consider the compound Oc1cccc(Nc2ccc(Nc3cccc(O)c3)nn2)c1 [beta-amyloid-synthesis-inhibitor] and give its recorded cell viability.
Outgoing: 92.4

Incoming: Specify cell viability for CNC(=N)NC(=O)Nc1c(C)cccc1C and stop.
Outgoing: 99.6

Incoming: Given the compound O=C1CCCCCCCCCCCCCCO1 , write its reported cell viability.
Outgoing: 102

Incoming: Name the recorded cell viability of the compound listed here: CCC[C@@]1(CCc2ccccc2)CC(O)=C([C@H](CC)c2cccc(NS(=O)(=O)c3ccc(C(F)(F)F)cn3)c2)C(=O)O1
Outgoing: 104

Incoming: Answer with the recorded cell viability for the compound listed here: O=C1CCC2CCC(=O)N12
Outgoing: 94.9

###

Please provide measured cell viability for the entries that follow.
# Test system: Calu-3
# protocol: cell viability relative to DMSO; higher = less toxic
# conditionDetails: 72 h; 1000 nM
Hi! Could you send only the number? It should be in %, unit omitted.

Incoming: Determine from records and report cell viability for Cc1ccc([N+](=O)[O-])cc1S(=O)(=O)N(C)/N=C/c1cnc2ccc(Br)cn12 [PIK-75]
Outgoing: 35.6

Incoming: In one line, give reported cell viability of the entry CNC(=O)c1nn(C)c2c1C(C)(C)Cc1cnc(Nc3ccc(N4CCN(C)CC4)cc3)nc1-2 .
Outgoing: 67.9

Incoming: Tell me measured cell viability for CCC(C)(C)C(=O)C(=O)N1CCC[C@H]1C(=O)OCCCc1cccnc1 [GPI-1046] please.
Outgoing: 103

Incoming: Provide cell viability value for the following molecule: CC(C)(C)C[C@@H]1N[C@@H](C(=O)N[C@H]2CC[C@H](O)CC2)[C@H](c2cccc(Cl)c2F)[C@]12C(=O)Nc1cc(Cl)ccc12
Outgoing: 110

###

# Tested on: Caco-2
# protocol: cell viability relative to DMSO; higher = less toxic
# conditionDetails: 72 h; 1 nM
For each entry below, report its cell viability value.
Give the value in % but do not write % after it.

Incoming: Give measured cell viability for S=C=Nc1cccc(NC(=S)NCCCCNC(=S)Nc2cccc(N=C=S)c2)c1 (Caco-2).
Outgoing: 100

Incoming: State measured cell viability of the compound CCn1cc(C(=O)O)c(=O)c2cc(F)c(N3CCNC(C)C3)c(F)c21 (centres undefined) with Caco-2.
Outgoing: 107

Incoming: Enter measured cell viability, system Caco-2, for the compound shown: CO/N=C1/C[C@@H](C(=O)NC[C@@H](O)c2ccccc2)N(C(=O)c2ccc(-c3ccccc3C)cc2)C1
Outgoing: 89

Incoming: Answer with cell viability of NS(=O)(=O)c1nn2cc(-c3ccccc3)nc2s1 measured for Caco-2.
Outgoing: 99.9

###

# System: Vero E6
# protocol: cell viability relative to DMSO; higher = less toxic
# conditionDetails: 72 h; 1000 nM
endpointLabel: cell viability (%)
Quick reminder: number only, in %, skip the unit.

Incoming: Name the recorded cell viability of the molecule listed here: CO[C@H]1CC[C@@H](C(=O)c2ccc3nc4c(cc3c2)CCCO4)CC1
Outgoing: 99

Incoming: Answer with the recorded cell viability for the molecule listed here: CN(C)CCOc1ccc(-c2nc(-c3ccncc3)c(-c3ccc4c(c3)CC/C4=N\O)[nH]2)cc1
Outgoing: 112

Incoming: Identify the reported cell viability for the following entry. Cc1cc(C)c(S(=O)(=O)Nc2ccccc2C(F)(F)F)c(C)c1 [o-3M3FBS]
Outgoing: 88.3

Incoming: Query cell viability for COC(=O)/C=C/c1cc(O)ccc1O [erbstatin-analog]
Outgoing: 74.8

Incoming: Tell me its cell viability given CC(C)CNc1nc(-c2cccc3ncccc23)cn2c(-c3ccc(C(=O)NC4CC4)cc3)cnc12 [Mps-BAY-2a] as the entry.
Outgoing: 71.1

Incoming: Let me know recorded cell viability for OCc1cncc(F)c1 [5-fluoro-3-pyridyl-methanol] , thanks.
Outgoing: 98.8

Incoming: Hello, please tell me recorded cell viability for this one: CCC[C@@]1(CCc2ccccc2)CC(O)=C([C@H](CC)c2cccc(NS(=O)(=O)c3ccc(C(F)(F)F)cn3)c2)C(=O)O1 [tipranavir]
Outgoing: 102

Incoming: Could you please provide reported cell viability for S=C=Nc1ccc(N=C=S)cc1 [bitoscanate] ? Thanks!
Outgoing: 92.2

Incoming: Report cell viability, nothing else, for this molecule: CC1(C)OC(=O)NC1=O [dimethadione]
Outgoing: 97.7

###

# Test system: A549-ACE2
# protocol: drug-induced phospholipidosis relative to tamoxifen; higher = more phospholipidosis
# conditionDetails: 0.3 µM; 48 h
endpointLabel: drug-induced phospholipidosis
Just so you know, I need the unit written after the number.

Incoming: Please look at this compound and report its drug-induced phospholipidosis: Clc1ccc2c(c1)N=C(N1CCNCC1)c1ccccc1N2
Outgoing: 4.09%

Incoming: Dear colleague, please send me the reported drug-induced phospholipidosis for CC[C@@H](C(=O)[C@@H](C)[C@@H](O)[C@H](C)[C@@H]1O[C@@H]([C@@H](CC)C(=O)O)CC[C@@H]1C)[C@H]1O[C@]2(C=C[C@@H](O)[C@]3(CC[C@@](C)([C@H]4CC[C@](O)(CC)[C@H](C)O4)O3)O2)[C@H](C)C[C@@H]1C when you can.
Outgoing: 3.07%

Incoming: Supply recorded drug-induced phospholipidosis for Oc1ccc2c(c1)CC[C@H](c1ccccc1)[C@@H]2c1ccc(OCCN2CCCC2)cc1 here.
Outgoing: 7.62%

Incoming: Give the measured drug-induced phospholipidosis for NCCC(Oc1ccc(C(F)(F)F)cc1)c1ccccc1 (stereo not given)
Outgoing: 1.11%

Incoming: Please look at this compound and report its drug-induced phospholipidosis: c1cc2c(cc1C1CCCCC1)c1c3n2CCNC3CCC1 (stereo not given)
Outgoing: 7.95%
